Tested on: T-47D breast
experiment_description: NCI tumour cell line growth inhibition, 48 h; in the data active = GI50 below about 0.43 µM; inactive = the rest
*1 amine or outer side, *2 acyl side, *3 side chain or, on linkers, in order; H or OH if unused. Where a SMILES comes first, the peptide text is derived from it. Bridges are numbered along the chain shown (N, C = ends). Roman numbers before positions name the chains, in order. X23 = CCCCCCCCCCCCCCC(=O)NC(CCCCN[*:2])C(=O)CN1CCCC1C(=O)[*:1]
Possible outcomes: active, inactive

>  <molecule>
CCCCCCCCCCCCCCC(=O)NC(CCCCNC(=O)C1CCCN1C(=O)C(CCCCN)NC(=O)C(CCCCN)NC(=O)C(CCCCN)NC(=O)C(CCCNC(=N)N)NC(=O)C(CCCCN)NC(=O)C(N)C(C)C)C(=O)CN1CCCC1C(=O)NCC(=O)NC(Cc1ccccc1)C(=O)N1CCCC1C(=O)NC(CO)C(=O)NC(Cc1ccc(O)cc1)C(=O)NC(CCCCN)C(=O)NC(CC(C)C)C(=O)NC(CCCNC(=N)N)C(=O)N1CCCC1C(=O)NCC(N)=O (stereo unspecified) (I: GFPSYKLRPG-NH2 / II: H-VKRKKKP; linker I:N-II:C via X23; configuration not given here)

>  <qualitative_label>
inactive

$$$$
>  <molecule>
CC(=O)Nc1c(I)c(C(=O)O)c(I)c(N(C)C(C)=O)c1I

>  <qualitative_label>
inactive

$$$$
>  <molecule>
CCN1CCN(CC(=O)Nc2nc3ccc(NCc4ccc(C)cc4)cc3s2)CC1

>  <qualitative_label>
inactive

$$$$
>  <molecule>
CCc1ccc(Oc2nccc(-c3c(-c4ccc(F)cc4)ncn3C3CCNCC3)n2)cc1

>  <qualitative_label>
inactive

$$$$
>  <molecule>
COc1cc2c(cc1OCc1ccccc1)N=C[C@@H]1C[C@@H](F)CN1C2=O

>  <qualitative_label>
inactive

$$$$
>  <molecule>
COc1ccccc1N(C(C)=O)C1=C(Cl)C(=O)c2ccccc2C1=O

>  <qualitative_label>
active

$$$$
>  <molecule>
NC(Cc1ccc(O)cc1)C(=O)N/N=C/c1ccc(N(CCCl)CCCl)cc1 (stereo unspecified)

>  <qualitative_label>
inactive

$$$$
>  <molecule>
O=C(N/N=C/c1ccncc1)c1ccc(C(F)(F)F)nc1Nc1cccc(C(F)(F)F)c1

>  <qualitative_label>
inactive

$$$$
>  <molecule>
Nc1cccc2c1CN(C1CCC(=O)NC1=O)C2=O (stereo unspecified)

>  <qualitative_label>
inactive

$$$$
>  <molecule>
CCOP(=O)(CCN1CCN(CCCCCOc2cc3c(cc2OC)C(=O)N2CCC[C@H]2C=N3)CC1)OCC

>  <qualitative_label>
inactive

$$$$
>  <molecule>
O=c1c(-c2ccc3c(c2)OCO3)coc2c(CO)c(O)ccc12

>  <qualitative_label>
inactive

$$$$
>  <molecule>
O=C1NC(=O)C(N2CCc3ccccc32)=C1c1ccc(Cl)cc1

>  <qualitative_label>
inactive

$$$$
>  <molecule>
Oc1[nH]c2ccc(Cl)cc2c1/C=c1/ccc2c(c1)N=C(c1ccc(C(F)(F)F)cc1)N=2

>  <qualitative_label>
inactive

$$$$
>  <molecule>
Cc1cc(NS(=O)(=O)c2ccc(NC(=O)COc3ccc(-c4cc5ccccc5[nH]4)cc3)cc2)no1

>  <qualitative_label>
inactive

$$$$
>  <molecule>
Cc1cc(Br)c2nsnc2c1[N+](=O)[O-]

>  <qualitative_label>
inactive

$$$$
>  <molecule>
CCCCCCCCn1ccc2cc(NC(=O)Cn3cc(CN4CCC(C)CC4)nn3)ccc21

>  <qualitative_label>
inactive

$$$$
